From: ChEMBL document CHEMBL1201862

- procedureSummary: false positives in methylated H4 peptide AlphaScreen detection – biochemical, cherry-picked samples, artefact control for NSD2 inhibitor project, dose response (AID 1053174);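 further: actives lower the AlphaScreen signal from the preloaded product and count as artifacts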
The whole screen tested about 1,500 compounds, of which about 140 (9.3%) were called active. The full list was thinned out, with actives kept by preference.
assayReadout: AbsAC35

Reference set (3 entries):
Briefly, AbsAC35 measured for `CCc1ccc(S(=O)(=O)/N=C2\C=C(NS(=O)(=O)c3ccccc3)C(=O)c3ccccc32)cc1` : 15.7 µM (active)

`Cc1[nH]c(O)nc1C(=O)CCCCC(=O)OCC(=O)Nc1ccccn1` yielded AbsAC35 of 11.4 µM (active)

Sure, the documented AbsAC35 for `COc1ccccc1-c1nnc2n1N=C(c1ccc(O)c(O)c1)CS2` is 18.5 µM (active)

Attention now shifts to the item below.
Sample `Cc1cc(C=O)c(C)n1-c1ccc(N2CCCCC2)c([N+](=O)[O-])c1` ; AbsAC35 observed: 17.3 µM (active)

###

- procedureSummary: false positives in methylated H4 peptide AlphaScreen detection – biochemical, cherry-picked samples, artefact control for NSD2 inhibitor project, dose response (AID 1053174);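 further: actives lower the AlphaScreen signal from the preloaded product and count as artifacts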
Among all 1,500 compounds or so, about 140 (9.3%) were called active. The sample as a whole holds a higher share of actives than the screen did.
assayReadout: AbsAC35

Field: example entries. Status: answers known.
So for `N#C/C(=C/c1ccc(O)c(O)c1)c1nc2ccccc2[nH]1` , the logged AbsAC35 turned out to be 15 µM (active)

AbsAC35 reported for this compound `N=C1/C(=C/c2ccc(O)c(O)c2)C(=O)N=C2SC(CC(=O)N3CCCC3)=NN12` : 10.6 µM (active)

Sure, the documented AbsAC35 for `CSc1ccc(/C=N/Nc2cccc(C(=O)O)c2)cc1` is 12 µM (active)

Per the records, this compound ( `CN(C)C=O.O=C(O)c1ccccc1NS(=O)(=O)c1ccc(N/N=C/c2ccc(O)c(O)c2)c([N+](=O)[O-])c1` ) has AbsAC35 equal to 10.8 µM (active)

For `CC(C)c1ccc(S(=O)(=O)/N=C2\C=C(NS(=O)(=O)c3ccccc3)C(=O)c3ccccc32)cc1` the compound record lists AbsAC35 as 11.3 µM (active)

New cases:
Memo: `O=C1NC(=O)/C(=C\c2ccc(O)cc2O)S1` , reported AbsAC35: 18.9 µM (active)

For Cc1ccc(NC(=O)CCCCCC2NC(=O)NC2C)cc1 (stereo not drawn) the compound record lists AbsAC35 as 13.9 µM (active)

Form: compound = `Cc1cccc(C)c1N=Nc1c(C)cc(O)cc1C` ; AbsAC35 = 20.6 µM (active)

For reference, reported AbsAC35 for `Cc1cc2c(=Cc3ccc(N(C)C)cc3)c3ccccc3n2[n+]1C` stands at 14.4 µM (active)

Reported AbsAC35 ( `Cc1ccc2[nH]c(/C(C#N)=C/c3ccc(O)c(O)c3)nc2c1` ) = 22.9 µM (active)

###

- procedureSummary: false positives in methylated H4 peptide AlphaScreen detection – biochemical, cherry-picked samples, artefact control for NSD2 inhibitor project, dose response (AID 1053174);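 further: actives lower the AlphaScreen signal from the preloaded product and count as artifacts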
Screen size: about 1,500 compounds; about 140 (9.3%) were called active. Shown is part of a subset that was picked to be rich in actives.
assayReadout: AbsAC35

Reported AbsAC35 for CC1CCCC(C)N1/N=C/c1ccc(O)c(O)c1 (stereo not drawn) was 10.9 µM (active)

Consider `COCC/N=c1\scc(-c2ccco2)n1/N=C/c1ccc(O)c(O)c1O` . Its measured AbsAC35 is 11.7 µM (active)

Further cases:
AbsAC35 for `O=[N+]([O-])c1ccccc1/C=C\C=N\N1CCN(c2ccccc2)CC1` is 17.5 µM (active)

# AbsAC35 (molecule: `CCS(=O)(=O)C1=NN2C(=N)/C(=C\c3ccc(SCc4ccco4)o3)C(=O)N=C2S1` ) is 18.7 µM (active)

Lab note: `COc1ccc(S(=O)(=O)N2CCN(CC(=O)c3ccc(O)c(O)c3)CC2)cc1` gave AbsAC35 of 12.5 µM (active)

Please fill in: AbsAC35 reported for CC1=NN(c2ccccc2)C(=O)C1/C=C1\NC(=S)NC1=O (stereo not drawn) = 28.8 µM (active)

Reported AbsAC35 ( `NCCc1c(-c2ccccc2)n(-c2ccccc2)c2ccccc12` ) = 18.5 µM (active)

Lab book: AbsAC35 of `CCN(c1ccccc1)S(=O)(=O)c1cc(C(=O)O)ccc1C` noted as 17.7 µM (active)
